The measurements presented in this section are drawn from paper PMC9056317.

# Tested on: human glioblastoma cell line GBM6
# MEASUREMENT_PROTOCOL: GBM6 proliferation MTT assay
# Type: cell-based
# MEASUREMENT_SETUP: Homo sapiens, GBM6, 72 h, read-out: IC 50 in GBM6
READOUT_KIND: pIC50
One number for each entry, as −log10 of the molar value.

[
  {
    "COMPOUND": "O=C1CCC2(ON=C(c3c(Cl)cccc3Cl)C2F)O1 (centres unmarked)",
    "TARGET_UNDER_TEST": "human glioblastoma cell line GBM6",
    "EXPERIMENTAL_VALUE": 4.36
  }
]

Problem: Which pIC50 is reported for this compound? FC1C(c2ccc(Br)cc2)=NOC12CCCCO2 (centres unmarked)
Solution: 4.44

###

# Test system: MDA MB 231 cells
# MEASUREMENT_PROTOCOL: MDA MB 231 proliferation MTT assay
# Type: cell-based
# MEASUREMENT_SETUP: Homo sapiens, MDA-MB-231, 72 h, read-out: IC50 in MDA MB 231
I'd appreciate it if you could supply pIC50 values for the items below.
Answers are plain numbers, as −log10 of the molar value.

[
  {
    "COMPOUND": "O=C1CCC2(ON=C(c3c(Cl)cccc3Cl)C2F)O1 (centres unmarked) [5f]",
    "pIC50": 4.10
  }
]

Problem: Which pIC50 is reported for this compound? FC1C(c2ccc(Br)cc2)=NOC12CCCCO2 (centres unmarked) [4l]
Solution: 4.17
